Acetylcholinesterase (Homo sapiens, UniProt P22303) data, read-out IC50
Sequence (P22303 whole entry): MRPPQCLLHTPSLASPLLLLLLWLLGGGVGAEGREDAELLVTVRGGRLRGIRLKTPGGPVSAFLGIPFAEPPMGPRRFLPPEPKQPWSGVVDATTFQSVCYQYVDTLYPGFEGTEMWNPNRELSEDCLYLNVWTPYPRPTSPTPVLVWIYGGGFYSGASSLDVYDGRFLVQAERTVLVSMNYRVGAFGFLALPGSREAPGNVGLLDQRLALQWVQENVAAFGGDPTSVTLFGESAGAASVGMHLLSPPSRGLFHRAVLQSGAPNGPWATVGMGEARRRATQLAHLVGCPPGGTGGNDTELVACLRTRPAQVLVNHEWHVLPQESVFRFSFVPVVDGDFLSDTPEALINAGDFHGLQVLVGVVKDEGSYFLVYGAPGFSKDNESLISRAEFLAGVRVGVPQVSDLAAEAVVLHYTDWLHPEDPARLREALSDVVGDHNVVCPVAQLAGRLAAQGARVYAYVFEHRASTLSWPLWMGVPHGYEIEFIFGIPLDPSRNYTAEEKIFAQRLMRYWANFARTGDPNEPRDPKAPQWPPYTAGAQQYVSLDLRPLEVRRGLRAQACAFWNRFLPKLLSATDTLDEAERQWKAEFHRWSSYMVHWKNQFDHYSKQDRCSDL

smiles_string: CCN(C)C(=O)Oc1cccc(CNCCc2c[nH]c3cc(F)ccc23)c1.O=C(O)/C=C/C(=O)O
value_unit: µM
IC50: 17.6
--
smiles_string: CCN(C)C(=O)Oc1cccc(CNCCc2c[nH]c3cc(F)ccc23)c1
value_unit: µM
IC50: 16.5

* * *

# experimental_target: 5-hydroxytryptamine receptor 6 (Homo sapiens, UniProt P50406)
# Sequence (P50406 whole entry): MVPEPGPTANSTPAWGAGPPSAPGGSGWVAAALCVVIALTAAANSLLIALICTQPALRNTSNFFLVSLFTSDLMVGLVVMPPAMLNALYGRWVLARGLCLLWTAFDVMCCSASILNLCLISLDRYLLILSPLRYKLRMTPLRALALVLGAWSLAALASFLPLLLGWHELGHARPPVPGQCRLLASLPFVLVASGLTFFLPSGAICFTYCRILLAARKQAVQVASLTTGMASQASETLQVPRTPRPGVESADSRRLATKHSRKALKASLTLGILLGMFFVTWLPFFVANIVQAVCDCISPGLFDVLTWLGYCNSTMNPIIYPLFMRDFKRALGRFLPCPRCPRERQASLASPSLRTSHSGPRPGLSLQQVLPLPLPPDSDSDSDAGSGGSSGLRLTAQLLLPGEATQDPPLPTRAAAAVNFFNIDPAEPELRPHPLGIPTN
# procedure_details: Antagonist activity at human 5HT6 receptor expressed in COS-7 cells assessed as inhibition of 5HT-induced cAMP accumulation preincubated for 7 mins followed by 5-HT addition and measured after 10 mins by HTRF assay
pIC50: −log10 of the molar value.

smiles_string: O=C(O)/C=C/C(=O)O.Oc1cccc(CNCCc2c[nH]c3cc(F)ccc23)c1
pIC50: 5.70

* * *

Collected LD50 at 24 h values appear next to each entry.
# procedure_details: Toxicity of compound in ip dosed NMRI mouse assessed as mortality after 24 hrs
# Assay type: organism-based
# experimental_parameters: in vivo
reported_property: LD50 at 24 h

smiles_string: O=C(O)/C=C/C(=O)O.Oc1cccc(CNCCc2c[nH]c3cc(F)ccc23)c1
reported_property: LD50 at 24 h
measured: > 100 mg/kg
--
smiles_string: CCN(C)C(=O)Oc1cccc(CNCCc2c[nH]c3cc(F)ccc23)c1.O=C(O)/C=C/C(=O)O
reported_property: LD50 at 24 h
measured: > 100 mg/kg
